- System: MOLT-16
- methodSummary: selective drug sensitivity score (sDSS, relative to normal bone marrow) (sDSS (score)); higher = more potent and effective on the cell line relative to normal bone marrow cells;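 further: ALL cell lines in 384-well plates, five doses spanning 10,000-fold, each plate scaled between vehicle and 100 µmol/L benzalkonium chloride controls, sDSS an adapted area-under-curve metric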
- conditionSet: 72 h
Cut-off -0.4 on selective drug sensitivity score, inclusive. At or above means class 1; below means class 0.

> print(dat)
                                    compound  qualitativelabel
 1  Cc1nc(Nc2ncc(C(=O)Nc3c(C)cccc3Cl)s2)cc(N2CCN(CCO)CC2)n1 [Dasatinib] (top concentration 1000 nM)           class 0
 2  CC(C)NC(=O)COc1cccc(-c2nc(Nc3ccc4[nH]ncc4c3)c3ccccc3n2)c1 [KD025] (top concentration 5000 nM)           class 1
 3  CN1CC[C@H](c2c(O)cc(O)c3c(=O)cc(-c4ccccc4Cl)oc23)[C@H](O)C1 [Alvocidib] (top concentration 10000 nM)           class 1
 4  Cn1cnc2c(F)c(Nc3ccc(Br)cc3F)c(C(=O)NOCCO)cc21 [Binimetinib] (top concentration 1000 nM)           class 0
 5  CCN(CC)C(=S)SSC(=S)N(CC)CC [Disulfiram(+CuCl2)] (top concentration 50000 nM)           class 1
 6  CC(C)C[C@H](NC(=O)CNC(=O)c1cc(Cl)ccc1Cl)B(O)O [Ixazomib] (top concentration 1000 nM)           class 1
 7  Oc1ncnc2[nH]ncc12 [Allopurinol] (top concentration 10000 nM)           class 0
 8  Nc1cccc2c1CN(C1CCC(=O)NC1=O)C2=O (stereo unspecified) [Lenalidomide] (top concentration 100000 nM)           class 0
 9  COc1cc(N2CCC(N3CCN(C)CC3)CC2)ccc1Nc1ncnc(Nc2ccccc2S(=O)(=O)C(C)C)n1 [ASP3026] (top concentration 10000 nM)           class 0
10  CCCN(CCC)C(=O)C1=Cc2ccc(-c3ccc(C(=O)N4CCCC4)cc3)cc2N=C(N)C1 [Motolimod] (top concentration 10000 nM)           class 0
11  C[C@]1(c2nc3c(C(N)=O)cccc3[nH]2)CCCN1 [Veliparib] (top concentration 10000 nM)           class 1

----------
Parameter: selective drug sensitivity score. Scope: all listed entries.
- System: NALM-16
- methodSummary: selective drug sensitivity score (sDSS, relative to normal bone marrow) (sDSS (score)); higher = more potent and effective on the cell line relative to normal bone marrow cells
- conditionSet: 72 h
measureName: selective drug sensitivity score

> print(dat)
                                   compound                       measurename  reported
1  Cc1cc(-c2nc(-c3ccc(OC(F)(F)F)cc3)no2)nn1Cc1ccnc(N2CCN(C3CC3)CC2)c1 [BAY_87-2243] (top concentration 1000 nM)  selective drug sensitivity score      4.24
2  COc1cc2ncnc(Nc3ccc(F)c(Cl)c3)c2cc1NC(=O)/C=C/CN1CCCCC1 [Dacomitinib] (top concentration 1000 nM)  selective drug sensitivity score     -1.54
3  CC(C)(O)CC(=O)NCCn1ccc2ncnc(Nc3ccc(Oc4cccc(C(F)(F)F)c4)c(Cl)c3)c21 [TAK-285] (top concentration 2500 nM)  selective drug sensitivity score         0
4  Cn1ncc(Cl)c1-c1cc(C(=O)N[C@H](CN)Cc2cccc(F)c2)sc1Cl [Afuresertib] (top concentration 1000 nM)  selective drug sensitivity score      1.46
5  COC(=O)c1ccc([C@H]2c3[nH]c4ccccc4c3C[C@H](C(=O)OC)N2C(=O)CCl)cc1 [RSL3] (top concentration 10000 nM)  selective drug sensitivity score         0
6  COc1ccccc1S(=O)(=O)Nc1ccc2c(c1)CN(C)C(=O)N2 [PFI-1] (top concentration 30000 nM)  selective drug sensitivity score        -1
